Can you tell me NF-kB SEAP reporter activity for the items I'm about to list?
System: RAW-Dual
Experiment: NF-kB SEAP reporter activity, fold change vs agonist alone; cytotoxicity flag (confluency mask): not cytotoxic; higher = enhanced NF-kB activity
Settings: agonist: Pam3CSK4 (TLR2/1) 0.1 ug/mL
The full ranking holds about 2,900 compounds; the median of “NF-kB SEAP reporter activity, fold change vs agonist alone” is about 0.99, and the highest 2% start at about 2.6. The sample as a whole holds a higher share of the highest values than the screen did.
One number for each entry.

1. COC12C(COC(N)=O)C3=C(C(=O)C(C)=C(N)C3=O)N1CC1NC12 (stereo not drawn) (library stock concentration (final ~1000-fold dilution): 10 mM) ... 3.31
2. OCCn1cc(-c2ccc3c(c2)CC/C3=N\O)c(-c2ccncc2)n1 (library stock concentration (final ~1000-fold dilution): 10 mM) ... 2.22

Query :: Answer with the recorded NF-kB SEAP reporter activity for the compound listed here: CN(C)CCOc1ccc(-c2nc(-c3ccncc3)c(-c3ccc4c(c3)CC/C4=N\O)[nH]2)cc1 (library stock concentration (final ~1000-fold dilution): 10 mM)
Result :: 0.882

The values you see were collected from the supplement of paper PMC10037445.
